Reference source: patent US20130230533A1

The entries below come with measured pKd values attached.
Biological target: T1, Monomeric monkey CD48-mmH (monkey)
T1 construct: Soluble monkey CD48 with a myc-myc-hexa-histidine C-terminal tag; the whole entry is the construct; also called mfCD48-mmH
T1 chain: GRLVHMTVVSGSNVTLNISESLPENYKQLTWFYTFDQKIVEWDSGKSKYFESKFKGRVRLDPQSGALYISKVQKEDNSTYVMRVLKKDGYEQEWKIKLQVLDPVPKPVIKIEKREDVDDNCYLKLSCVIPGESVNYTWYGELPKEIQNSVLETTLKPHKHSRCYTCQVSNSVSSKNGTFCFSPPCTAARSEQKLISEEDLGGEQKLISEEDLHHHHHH
Test: SPR (Biacore), antibody captured by anti-Fc, CD48 in solution, 37 C
To interpret pKd, take it as minus log10 of a concentration measured in moles per litre.

BINDER	pKd
H4H1775P (antibody, human IgG4, V domains shown, Human IgG4 Fc (H4H)) VH: QVQLVESGGGVVQPGRSLRLSCAASGFTFSNYGMHWVRQAPGKGLEWVAVIWYDESGKHYADSVKGRFTISRDNSQNTLYLQMTSLRAEDTAVYYCARDRWTYSHYFEYWGQGTLVTVSS VL: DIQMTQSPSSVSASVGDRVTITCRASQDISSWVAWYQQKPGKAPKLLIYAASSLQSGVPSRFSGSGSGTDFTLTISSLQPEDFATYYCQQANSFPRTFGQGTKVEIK	9.30

GET /value?item= H4H1707N (antibody, V domains shown, Human IgG4 Fc (H4H)) VH: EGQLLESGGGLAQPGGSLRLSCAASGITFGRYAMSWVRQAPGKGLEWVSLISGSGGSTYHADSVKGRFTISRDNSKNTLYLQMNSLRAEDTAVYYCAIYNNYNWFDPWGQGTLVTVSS VL: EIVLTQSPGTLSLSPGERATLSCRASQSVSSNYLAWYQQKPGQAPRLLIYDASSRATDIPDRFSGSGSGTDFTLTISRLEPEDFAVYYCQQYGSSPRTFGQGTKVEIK &field=pKd returns 8.43

response.value for H4H1779P (antibody, human IgG4, V domains shown, Human IgG4 Fc (H4H)) VH: QVQLVESGGGVVQPGRSLRLSCAASGFTFSNYGMHWVRQAPGKGLEWVAVIWYDESSKHYADSVKGRFTISRDNSQNTLYLQMTSLRAEDTAVYYCARDRWTYSHYFEYWGQGTLVTVSS VL: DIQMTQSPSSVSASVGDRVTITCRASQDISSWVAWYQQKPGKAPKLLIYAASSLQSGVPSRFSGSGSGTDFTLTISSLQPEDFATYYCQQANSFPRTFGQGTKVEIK (field: pKd) = 8.98
